Test system: hIL-6 mRNA
test-name: Inhibition of hIL-6 mRNA transcription in LPS-stimulated U937 cells
Assay type: cell-based
condition-info: Homo sapiens, U-937; U937 cells differentiated with PMA, 1 h pretreatment, LPS 3 h; read-out: IL-6 activity

molecule	IC50
Cc1noc(C)c1-c1cc(N)c(=O)n(Cc2ccc(C3CO3)cc2)c1 (stereo not shown)	300 to 3000 nM
Cc1noc(C)c1-c1cc(N)c2ncn(Cc3ccc(C4CO4)cc3)c2c1 (stereo not shown)	300 to 3000 nM
Cc1noc(C)c1-c1ccc(=O)n(Cc2ccc(C3CO3)c(F)c2)c1 (stereo not shown)	3000 to 30000 nM
Cc1noc(C)c1-c1ccc(=O)n(Cc2ccc(C3CO3)cc2)c1 (stereo not shown)	3000 to 30000 nM

These data points were gathered from patent US10231953B2.
